- Target desc: HLA-B*15:01
- Test summary: IEDB peptide-MHC binding, purified MHC/competitive/fluorescence; filed as Kd, often an IC50 or EC50 that approximates it; bounds were set here for any values at or beyond the usual limits of such assays
- Measurement context: source organism: Francisella tularensis subsp. tularensis FSC198
Recorded endpoint: Kd (nM)
Write the value in nM as a bare number.

Q: # query: Kd of entry "KRINSLIKY"
Result: 3000

----------
Entries and their measured Kd follow.
- Target desc: HLA-A*11:01
- Test summary: IEDB peptide-MHC binding, purified MHC/competitive/radioactivity; filed as Kd, often an IC50 or EC50 that approximates it; bounds were set here for any values at or beyond the usual limits of such assays
- Measurement context: source organism: Dengue virus 3 Martinique/1243/1999

VSILASSLLR : 514 nM

Proceeding to the next sequence to report its Kd.
Q: Recorded Kd for "RTYSDPLALK" , please?
Result: 36.1 nM
